# System: PC-3 prostrate cell adenocarcinoma
# assay: Relative colony forming efficiency (Example 17, Table 13)
# Assay type: cell-based, human
# setupConditions: averages of 2-8 determinations
# Protocol: Colony forming efficiency was determined using standard protocols. […] The test oligonucleotides were added to cell cultures in the presence of 2.5 μg of DOTMA/DOPE (Lipofectin; Life Technologies, Inc.) for four hours. The oligonucleotide was tested at 0.2 μM unless otherwise indicated. […] Surviving cells were visualized by methylene blue staining, and colonies were scored. In some experiments cell aliquots were removed from the culture and viability was determined using the trypan blue exclusion test. […]
Oligonucleotides are written 5' to 3', each unit as a sugar letter and its base; * is a phosphorothioate linkage, no mark a phosphodiester; rarer units and linkages stand in square brackets, end groups in braces. Plain capitals give the bases only. d = 2'-deoxy (DNA)
Classes are defined on Reduced relative colony forming efficiency, PC-3 (% inhibition of colony forming ability) with ranges lo = under 70%, mid = from 70% up to 90%, hi = 90% and over

>>> df
                                  substance  discretelabel
0  TCAGAGGGGGCAGAGAATCC (antisense dT*dC*dA*dG*dA*dG*dG*dG*dG*dG*dC*dA*dG*dA*dG*dA*dA*dT*dC*dC) [AS-II-2044-20]            mid

Ask: Class? Entry: CAGAATATCGACGCAAAAGA (dC*dA*dG*dA*dA*dT*dA*dT*dC*dG*dA*dC*dG*dC*dA*dA*dA*dA*dG*dA) [AS-II-909-20]
Result: mid

Ask: Next up: AAAACCTTGCTAAAACCCAG (antisense dA*dA*dA*dA*dC*dC*dT*dT*dG*dC*dT*dA*dA*dA*dA*dC*dC*dC*dA*dG) [AS-II-1197-20]
Result: mid

Ask: Next up: ATCCAGCGCAAGGCCCAGTC (antisense dA*dT*dC*dC*dA*dG*dC*dG*dC*dA*dA*dG*dG*dC*dC*dC*dA*dG*dT*dC) [AS-II-816-20]
Result: hi

Ask: Next up: TTCTCTTACTCTCTCCTCCG (antisense dT*dT*dC*dT*dC*dT*dT*dA*dC*dT*dC*dT*dC*dT*dC*dC*dT*dC*dC*dG) [AS-II-1048-20]
Result: mid

Ask: Next up: CCCAGGACACTACACAAGCC (antisense dC*dC*dC*dA*dG*dG*dA*dC*dA*dC*dT*dA*dC*dA*dC*dA*dA*dG*dC*dC) [AS-II-2026-20]
Result: hi

====

Some substances, each annotated with its measured Reduced relative colony forming efficiency, T-47D (% inhibition of colony forming ability).
# Test system: T-47D breast ductal carcinoma
# assay: Relative colony forming efficiency (Example 17, Table 13)
# Assay type: cell-based, human
# setupConditions: averages of 2-8 determinations
Oligonucleotides are written 5' to 3', each unit as a sugar letter and its base; * is a phosphorothioate linkage, no mark a phosphodiester; rarer units and linkages stand in square brackets, end groups in braces. Plain capitals give the bases only. d = 2'-deoxy (DNA)
Write the value in % as a bare number.

Here is how some substances turned out for Reduced relative colony forming efficiency, T-47D (% inhibition of colony forming ability).
>>> print(df.to_string())
                                  substance                systemundertest  unitofmeasurement  resultnumber
0  GCTCCCACATATGAAAACTC (antisense dG*dC*dT*dC*dC*dC*dA*dC*dA*dT*dA*dT*dG*dA*dA*dA*dA*dC*dT*dC) [AS-II-2229A-20]  T-47D breast ductal carcinoma                  %         58.82
1  CGCGCGCTCCCGGCCCTTCC (listed as DNA, chemistry not fully specified) [AS-II-75-20]  T-47D breast ductal carcinoma                  %         32.95
2  AS-II-1560.20 (antisense dG*dT*dA*dA*dG*dT*dC*dA*dC*dA*dG*dC*dC*dA*dG*dC*dC*dA*dG*dG)  T-47D breast ductal carcinoma                  %          86.6

Ask: GET /values?readout=Reduced relative colony forming efficiency, T-47D (% inhibition of colony forming ability)&item= GACACAAGGCATCGTTTCAA (antisense dG*dA*dC*dA*dC*dA*dA*dG*dG*dC*dA*dT*dC*dG*dT*dT*dT*dC*dA*dA) [AS-II-784-20]
Result: 85.39

Ask: Next up: TCCTCGGCGGTCCAAA (antisense dT*dC*dC*dT*dC*dG*dG*dC*dG*dG*dT*dC*dC*dA*dA*dA) [AS-II-496-16]
Result: 10.79

Ask: Next up: CGCGCTCCCGGCCC (antisense dC*dG*dC*dG*dC*dT*dC*dC*dC*dG*dG*dC*dC*dC) [AS-II-79-14]
Result: 70.81
